assay.name: folding stability dG unfold from chymotrypsin proteolysis; higher = more stable
Parameter: folding stability dG unfold. Scope: all listed entries.
Hi! Could you send only the number? It should be in kcal/mol, unit omitted.

| sequence.chain | folding stability dG unfold [kcal/mol] |
| --- | --- |
| SIKIRKEKTPNGYYEITFEFPFPDGWPMTIEANVQVDPENGKVKVDIKIEDPNLPPEFKEFIENFEFKVPSA [r9_715_TrROS] | 2.97 |
| SAGPPKKREFEIMIQIPLPPGQSAEELKDLLEIPIRLPDGKTIEIRPRAIEVDPGPGQVTVHYKIEVTDSAG [r5_939_TrROS] | 0.498 |
| SAGGSAGGSAGGAPVEVKTAVFRHPDNPRWYVLRVARLPGTGRLVVVLFDPETGEFAVFPSAGGSAGGSAGG [r7_923_TrMRF] | 2.18 |

Shifting focus to the sequence that follows.
stdin: State the recorded folding stability dG unfold for this entry: SENPVLKNRPLPVVGTTERTSVAKPGESLDVKELPSNGIVATTPDGSTVGITVTVDANGNVLSLEIKPDPSA [r9_1195_JUSTAS]
stdout: 0.272
